# Population Mitochondria Different-Phenotype (%) values compiled below
# Test system: Fibroblast
# assay.overview: Multiplex assay against human fibroblast
# Type: toxicity, cell-based
# condition.context: 24 h, 1 µM, compound concentration 1 uM, replicate 2
property: Population Mitochondria Different-Phenotype (%)

compound: CCCCCCNC(=O)Nc1ccc(S(=O)(=O)Nc2ccc(CCNC[C@H](O)COc3ccc(O)cc3)cc2)cc1 [L-755507]
study.system: Fibroblast
recorded.number: 12

compound: CCn1c(-c2nc3cc(C(=O)N4CCCC(N)C4)ccc3n2C)cc2ccccc21.Cl (centres undefined)
study.system: Fibroblast
recorded.number: 20

compound: COc1cc2nc(N3CCN(C(=O)c4ccco4)CC3)nc(N)c2cc1OC.Cl [PRAZOSIN HYDROCHLORIDE]
study.system: Fibroblast
recorded.number: 3

compound: COc1cc2nc(N3CCN(C(=O)COc4c(OC)cccc4C(C)C)CC3)nc(N)c2cc1OC.Cl.Cl
study.system: Fibroblast
recorded.number: 11
